target: recombinant human MASP2 active protease (amino acids 297-686, C-terminal His Tag) (human, UniProt O00187 297-686); test: cell-based or functional assay
Sequence (O00187 other isoform, or with tags, fused parts or gaps limits assumed): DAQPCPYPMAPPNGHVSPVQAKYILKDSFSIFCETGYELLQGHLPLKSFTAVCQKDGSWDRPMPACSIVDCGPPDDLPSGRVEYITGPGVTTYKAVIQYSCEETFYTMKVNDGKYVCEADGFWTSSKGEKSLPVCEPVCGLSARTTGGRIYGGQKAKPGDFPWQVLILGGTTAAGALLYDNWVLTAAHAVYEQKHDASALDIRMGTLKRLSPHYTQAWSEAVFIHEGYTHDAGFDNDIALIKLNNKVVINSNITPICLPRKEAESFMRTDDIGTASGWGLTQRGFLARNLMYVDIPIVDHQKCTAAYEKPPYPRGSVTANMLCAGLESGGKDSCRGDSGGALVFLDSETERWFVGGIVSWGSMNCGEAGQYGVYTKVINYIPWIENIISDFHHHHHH
Bridge positions count the residues as written; N and C are the ends. Square brackets hold non-standard residues; d marks the D form. Primed or numbered codes have the meaning given here. * marks the point of attachment. Tranexamic″ = tranexamic acid, NC[C@H]1CC[C@@H](C(=O)*)CC1; tBuAla = CC(C)(C)C[C@H](N)C(=O)O; PEG4 = NCCOCCOCCOCCOCCC(=O)O; Pen = CC(C)(S)[C@H](N)C(=O)O
READOUT_TYPE: human MASP2 IC50 (nM)

>  <BINDER>
{Tranexamic″}-ICSRS[tBuAla]PPI[Pen]IP-{PEG4-NH2} (disulfide 2-10; SMILES CC[C@H](C)[C@@H]1NC(=O)[C@@H]2CCCN2C(=O)[C@@H]2CCCN2C(=O)[C@H](CC(C)(C)C)NC(=O)[C@H](CO)NC(=O)[C@H](CCCNC(=N)N)NC(=O)[C@H](CO)NC(=O)[C@@H](NC(=O)[C@@H](NC(=O)[C@H]2CC[C@@H](CN)CC2)[C@@H](C)CC)CSSC(C)(C)[C@@H](C(=O)N[C@H](C(=O)N2CCC[C@H]2C(=O)NCCOCCOCCOCCOCCC(N)=O)[C@@H](C)CC)NC1=O) [Example 423: (Tranexamic)-IC+SRS-((tBu)A)-PPI-(Pen)+IP-(PEG3(16 atoms))-NH2]

>  <REPORTED_VALUE>
12

$$$$
